The measured values listed here are drawn from patent US10478574B2.

assay: Blood plasma pharmacokinetics of midazolam for three administration systems (Example #1); settings: both, human, plasma, iv, 3.4 mg, Cmax, intravenous administration system, mean
value-type: Cmax (ng/mL)
Report the figure in ng/mL without appending any unit label.

What does the record list as Cmax for Cc1ncc2n1-c1ccc(Cl)cc1C(c1ccccc1F)=NC2 ? 152

###

assay: Blood plasma pharmacokinetics of midazolam for three administration systems (Example #1); settings: both, human, plasma, iv, 3.4 mg
value-type: AUC(0-inf) (ng·h/mL)
Expressed in ng·h/mL, but write only the number.

Entry under review: Cc1ncc2n1-c1ccc(Cl)cc1C(c1ccccc1F)=NC2 . Reported AUC(0-inf)? 136

###

assay: Blood plasma pharmacokinetics of midazolam for three administration systems (Example #1); details: both, human, plasma, inhaled or intranasal, 3.4 mg, T1/2, bi-directional nasal administration system, mean
value-type: half-life

Entry Cc1ncc2n1-c1ccc(Cl)cc1C(c1ccccc1F)=NC2 : reported half-life = ? 1.98 h
